# METHOD_DESCRIPTION: Apparent permeability of the compound in MDCK2 cells
# Assay type: ADME, cell-based, Canis lupus familiaris, MDCK-II
# CONDITION_SET: dog, mdck
RECORDED_METRIC: Papp

As a guide, the following entries are already answered.
In [3]: df
Out[3]:
                            compound_string  recorded_metric  recorded_result
0  Cc1cn2cc(CC(=O)N3CCC4(CC3)CN([C@@H]3CCc5cc(-c6ncccn6)ccc53)C4)nc2s1             Papp    11 ×10⁻⁶ cm/s
1  COc1ccc(CC(=O)N2CCC3(CC2)CN([C@@H]2CCc4cc(-c5ccncn5)ccc42)C3)nc1             Papp    15 ×10⁻⁶ cm/s
2  Cc1cc(-c2ccc3c(c2)CC[C@H]3N2CC3(CCN(C(=O)Cc4cn5cc(C)sc5n4)CC3)C2)ncn1             Papp     5 ×10⁻⁶ cm/s

For reference, reported Papp for `COc1ccc(CC(=O)N2CCC3(CC2)CN([C@@H]2CCc4cc(-c5nccc(C)n5)ccc42)C3)nc1` stands at 10 ×10⁻⁶ cm/s

###

# TARGET_OR_TEST_SYSTEM: Muscarinic acetylcholine receptor M2 (Homo sapiens) (UniProt P08172)
# Sequence (whole entry): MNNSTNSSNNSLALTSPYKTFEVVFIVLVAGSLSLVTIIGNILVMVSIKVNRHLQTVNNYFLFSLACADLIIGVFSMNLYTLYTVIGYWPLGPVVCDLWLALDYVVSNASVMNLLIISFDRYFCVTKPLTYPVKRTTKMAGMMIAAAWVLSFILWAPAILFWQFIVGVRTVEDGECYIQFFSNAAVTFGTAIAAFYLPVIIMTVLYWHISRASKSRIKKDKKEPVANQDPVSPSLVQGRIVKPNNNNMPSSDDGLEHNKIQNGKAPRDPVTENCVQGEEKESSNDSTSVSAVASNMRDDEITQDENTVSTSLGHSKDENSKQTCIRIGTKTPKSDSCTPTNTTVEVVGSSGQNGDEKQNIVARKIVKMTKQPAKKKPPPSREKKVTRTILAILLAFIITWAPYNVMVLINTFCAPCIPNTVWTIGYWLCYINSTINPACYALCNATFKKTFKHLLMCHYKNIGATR
# METHOD_DESCRIPTION: Antagonist activity at muscarinic M2 receptor (unknown origin) expressed in CHO-K1 CHRM2 beta-arrestin cells assessed as inhibition of oxotremorine S-induced effect after 90 mins
# Type: cell-based
Binary call on pKb: true (1) from 6 upward, false (0) beneath that.

In [3]: df
Out[3]:
                            compound_string  qualitative_label
0  Cc1cn2cc(CC(=O)N3CCC4(CC3)CN([C@@H]3CCc5cc(-c6ncccn6)ccc53)C4)nc2s1           true (1)

Req: Would you say `Cc1cc(-c2ccc3c(c2)CC[C@H]3N2CC3(CCN(C(=O)Cc4cn5cc(C)sc5n4)CC3)C2)ncn1` shows pKb at minimum 6?
Resp: false (0)

Req: Would you say `Cc1cn2cc(CC(=O)N3CCC4(CC3)CN([C@@H]3CCc5cc(-c6ccc(C(N)=O)nc6)ccc53)C4)nc2s1` shows pKb at minimum 6?
Resp: true (1)

Req: Would you say `COc1ccc(CC(=O)N2CCC3(CC2)CN([C@@H]2CCc4cc(-c5cc(C)ncn5)ccc42)C3)nc1` shows pKb at minimum 6?
Resp: false (0)

###

# METHOD_DESCRIPTION: Apparent intrinsic clearance in human liver microsomes
# Assay type: ADME
# CONDITION_SET: read-out: CLH
RECORDED_METRIC: CLint scaled (mL/min/kg)
Write the number in mL/min/kg without appending the unit.

                            compound_string  recorded_result
0  COc1ccc(CC(=O)N2CCC3(CC2)CN([C@@H]2CCc4cc(-c5ccncn5)ccc42)C3)nc1               82

For reference, reported CLint scaled for `Cc1cn2cc(CC(=O)N3CCC4(CC3)CN([C@@H]3CCc5cc(-c6ncccn6)ccc53)C4)nc2s1` stands at 18

For reference, reported CLint scaled for `COc1ccc(CC(=O)N2CCC3(CC2)CN([C@@H]2CCc4cc(-c5nccc(C)n5)ccc42)C3)nc1` stands at 17

For reference, reported CLint scaled for `Cc1cc(-c2ccc3c(c2)CC[C@H]3N2CC3(CCN(C(=O)Cc4cn5cc(C)sc5n4)CC3)C2)ncn1` stands at 21

###

# TARGET_OR_TEST_SYSTEM: Growth hormone secretagogue receptor type 1 (Homo sapiens, UniProt Q92847)
# Sequence (Q92847 whole entry): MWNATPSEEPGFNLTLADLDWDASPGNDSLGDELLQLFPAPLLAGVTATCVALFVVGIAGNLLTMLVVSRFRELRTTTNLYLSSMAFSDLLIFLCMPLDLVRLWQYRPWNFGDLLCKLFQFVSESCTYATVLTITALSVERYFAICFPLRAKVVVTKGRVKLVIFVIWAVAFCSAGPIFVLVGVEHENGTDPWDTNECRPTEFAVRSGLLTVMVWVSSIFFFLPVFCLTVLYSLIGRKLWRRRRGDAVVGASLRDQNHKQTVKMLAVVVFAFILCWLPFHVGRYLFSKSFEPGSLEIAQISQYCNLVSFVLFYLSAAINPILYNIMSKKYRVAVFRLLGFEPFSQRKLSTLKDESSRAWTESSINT
# METHOD_DESCRIPTION: Displacement of [125I]ghrelin from human ghrelin receptor expressed in HEK293 cells after 8 hrs by scintillation proximity assay
# Assay type: cell-based
The entries below are paired with their reported pKi.
Quick note: pKi values are minus log10 of concentrations in mol/L.

For reference, reported pKi for `Cc1cc(-c2ccc3c(c2)CC[C@H]3N2CC3(CCN(C(=O)Cc4cn5cc(C)sc5n4)CC3)C2)ncn1` stands at 8.18

For reference, reported pKi for `Cc1cn2cc(CC(=O)N3CCC4(CC3)CN([C@@H]3CCc5cc(-c6ncccn6)ccc53)C4)nc2s1` stands at 8.34

###

The entries below are paired with their reported Ki.
# TARGET_OR_TEST_SYSTEM: Growth hormone secretagogue receptor type 1 (Homo sapiens, UniProt Q92847)
# METHOD_DESCRIPTION: Inverse agonist activity at human ghrelin receptor expressed in HEK293 cells assessed as inhibition of ghrelin-induced europium-labeled GTP-gamma-S binding by DELFIA
# Type: cell-based

As a guide, the following entries are already answered.
                            compound_string  recorded_metric  recorded_result
0  Cc1cn2cc(CC(=O)N3CCC4(CC3)CN([C@@H]3CCc5cc(-c6ncccn6)ccc53)C4)nc2s1               Ki          6.61 nM
1  COc1ccc(CC(=O)N2CCC3(CC2)CN([C@@H]2CCc4cc(-c5nccc(C)n5)ccc42)C3)nc1               Ki          50.1 nM

For reference, reported Ki for `COc1ccc(CC(=O)N2CCC3(CC2)CN([C@@H]2CCc4cc(-c5ncc(C)cn5)ccc42)C3)nc1` stands at 85.1 nM

For reference, reported Ki for `Cc1cc(-c2ccc3c(c2)CC[C@H]3N2CC3(CCN(C(=O)Cc4cn5cc(C)sc5n4)CC3)C2)ncn1` stands at 6.61 nM

For reference, reported Ki for `COc1ccc(CC(=O)N2CCC3(CC2)CN([C@@H]2CCc4cc(-c5ncccn5)ccc42)C3)nc1` stands at 25.1 nM

###

# TARGET_OR_TEST_SYSTEM: Muscarinic acetylcholine receptor M2 (Homo sapiens)
# METHOD_DESCRIPTION: Antagonist activity at muscarinic M2 receptor (unknown origin) expressed in CHO-K1 CHRM2 beta-arrestin cells assessed as inhibition of oxotremorine S-induced effect after 90 mins
# Format: cell-based
The entries below are paired with their reported pKb.
Output spec: single numeric token, no unit.

                            compound_string  recorded_result
0  COc1ccc(CC(=O)N2CCC3(CC2)CN([C@@H]2CCc4cc(-c5ccncn5)ccc42)C3)nc1             6.08

The recorded pKb with Muscarinic acetylcholine receptor M2 (Homo sapiens) for `COc1ccc(CC(=O)N2CCC3(CC2)CN([C@@H]2CCc4cc(-c5nccc(C)n5)ccc42)C3)nc1` was 6.09

The recorded pKb with Muscarinic acetylcholine receptor M2 (Homo sapiens) for `COc1ccc(CC(=O)N2CCC3(CC2)CN([C@@H]2CCc4cc(-c5ncccn5)ccc42)C3)cc1` was 5.94

The recorded pKb with Muscarinic acetylcholine receptor M2 (Homo sapiens) for `COc1ccc(CC(=O)N2CCC3(CC2)CN([C@@H]2CCc4cc(-c5ncccn5)ccc42)C3)nc1` was 6.18

The recorded pKb with Muscarinic acetylcholine receptor M2 (Homo sapiens) for `COc1ccc(CC(=O)N2CCC3(CC2)CN([C@@H]2CCc4cc(-c5ncc(C)cn5)ccc42)C3)nc1` was 5.86

Values from ChEMBL document CHEMBL3286150
